Test system: Streptococcus pneumoniae
assay comment: Antimicrobial activity test (growth, OD600)
Type: cell-based
measurement parameters: read-out: Bacterial Viability (IC50)
parameter: pIC50
Keep it numeric: pIC50 is minus log10 of the concentration in mol/L.

Recorded pIC50 for O=C(/C=C/c1csnn1)c1ccccc1Cl , please?
4.11

// query pIC50 value for entry O=C(/C=C/c1csnn1)c1cccc2ccccc12
4.22

# input compound: O=C(/C=C/c1csnn1)c1cc(Cl)ccc1Cl ; wanted: its pIC50
4.53

====

System: Shigella sonnei
assay comment: Antimicrobial activity test (growth, OD600)
Assay type: cell-based
measurement parameters: read-out: Bacterial Viability (IC50)
pIC50: −log10 of the molar value.
Would you kindly list pIC50 for each of these compounds?

Given the entry O=C(/C=C/c1csnn1)c1ccccc1Cl , what pIC50 was observed with Shigella sonnei?
< 4.00

Request: pIC50, test system Shigella sonnei, entry O=C(/C=C/c1csnn1)c1cccc2ccccc12
< 4.00

Kindly state the measured pIC50 obtained for O=C(/C=C/c1csnn1)c1cc(Cl)ccc1Cl with Shigella sonnei.
< 4.00

Reference source: paper PMC8000395
